Source: paper PMC8675330

assay: In vivo pharmacokinetics in plasma, brain and lung after IV, IN and IN + BorNLC co-administration; design: species or system CD-1 mice; conditions: CD-1, mouse; paroxetine; brain; IV free drug; 2.38 mg/kg
Structures can show the parent of a compound that is named as a salt.
OUTCOME_MEASURE: Tmax (h)
Numbers only, in h.

Value of Tmax reported for the compound Fc1ccc([C@@H]2CCNC[C@H]2COc2ccc3c(c2)OCO3)cc1 [Paroxetine, Paroxetine hydrochloride] is 2

====

assay: In vivo pharmacokinetics in plasma, brain and lung after IV, IN and IN + BorNLC co-administration; parameters: species or system CD-1 mice; conditions: CD-1, mouse, inhaled or intranasal; paroxetine; lung; IN free drug; 2.38 mg/kg
Counter-ions that a name gives are not always drawn.
OUTCOME_MEASURE: Cmax
Report field: quantity (unit follows the number).

Value of Cmax reported for the compound Fc1ccc([C@@H]2CCNC[C@H]2COc2ccc3c(c2)OCO3)cc1 [Paroxetine, Paroxetine hydrochloride] is 2820 ng/g

====

test: In vivo pharmacokinetics in plasma, brain and lung after IV, IN and IN + BorNLC co-administration; design: species or system CD-1 mice; conditions: CD-1, mouse, brain/plasma, other: intranasal (IN), 2.38 mg/kg; read-out: AUCtbrain/AUCtplasma
Where a name gives a salt, the structure may show the parent alone.
OUTCOME_MEASURE: Kp
One number for each entry.

Value of Kp reported for the molecule CN(C)CCC[C@@]1(c2ccc(F)cc2)OCc2cc(C#N)ccc21 [Escitalopram, escitalopram oxalate] is 0.86

====

assay: In vivo pharmacokinetics in plasma, brain and lung after IV, IN and IN + BorNLC co-administration; parameters: species or system CD-1 mice; conditions: CD-1, mouse, plasma, inhaled or intranasal, 2.38 mg/kg
Structures can show the parent of a compound that is named as a salt.
OUTCOME_MEASURE: AUC(0-t) (ng·h/mL)
One number for each entry, in ng·h/mL.

Value of AUC(0-t) reported for the compound CN(C)CCC[C@@]1(c2ccc(F)cc2)OCc2cc(C#N)ccc21 [Escitalopram, escitalopram oxalate] is 507

====

test: In vivo pharmacokinetics in plasma, brain and lung after IV, IN and IN + BorNLC co-administration; parameters: species or system CD-1 mice; conditions: CD-1, mouse, inhaled or intranasal; paroxetine; plasma; IN free drug; 2.38 mg/kg
Where a name gives a salt, the structure may show the parent alone.
OUTCOME_MEASURE: Cmax
Report field: quantity (unit follows the number).

Value of Cmax reported for the compound Fc1ccc([C@@H]2CCNC[C@H]2COc2ccc3c(c2)OCO3)cc1 [Paroxetine, Paroxetine hydrochloride] is 696 ng/mL

====

assay: In vivo pharmacokinetics in plasma, brain and lung after IV, IN and IN + BorNLC co-administration; set-up: species or system CD-1 mice; settings: CD-1, mouse, brain, iv, 2.38 mg/kg
Structures can show the parent of a compound that is named as a salt.
OUTCOME_MEASURE: Tmax (min)
Answers are plain numbers, in min.

Value of Tmax reported for the compound CN(C)CCC[C@@]1(c2ccc(F)cc2)OCc2cc(C#N)ccc21 [Escitalopram, escitalopram oxalate] is 15

====

assay: In vivo pharmacokinetics in plasma, brain and lung after IV, IN and IN + BorNLC co-administration; set-up: species or system CD-1 mice; conditions: CD-1, mouse, brain, inhaled or intranasal, 2.38 mg/kg
Counter-ions that a name gives are not always drawn.
OUTCOME_MEASURE: Cmax (ng/g)
Numbers only, in ng/g.

Value of Cmax reported for the compound CN(C)CCC[C@@]1(c2ccc(F)cc2)OCc2cc(C#N)ccc21 [Escitalopram, escitalopram oxalate] is 133
